B1: SMTNL2 (parent)
chain: QKNFELAFTMAENLANCERLIEVE

Variants of: B1
Assay: protein stability index of a GFP-peptide fusion (GPS, HEK-293T) (PSI 1-6); higher = more stable;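 note: lentivirally expressed fusions sorted by FACS into six bins by GFP to DsRed ratio, PSI derived from sequencing read proportions per bin multiplied by bin number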
Settings: c terminus: a fixed tail appended
Rule: criterion met for protein stability index not less than 2, criterion not met for anything less.

Answered cases to consult:
QKNFELAFTMAENLANHERLIEVE
criterion met
QKNFELAFTKAENLANCERLIEVE
criterion met
QKNFELAFTMAENLANCERLNEVE
criterion met
QKNFEFAFTMAENLANCERLIEVE
criterion not met
QKNFTLAFTMAENLANCERLIEVE
criterion not met
QKNFELAPTMAENLANCERLIEVE
criterion met
QKNFEEAFTMAENLANCERLIEVE
criterion met
QKNFELAFTMAENLANYERLIEVE
criterion met
QKNFELAFTMEENLANCERLIEVE
criterion met
QKNFELAFTMANNLANCERLIEVE
criterion met

Request: Check this variant for protein stability index at or above 2: QKNFELAFTRAENLANCERLIEVE
Result: criterion met

Request: Exam item: decide whether the reported protein stability index for QHNFELAFTMAENLANCERLIEVE is at least 2.
Result: criterion not met

Request: Is reported protein stability index greater than or equal to 2 here: QKNFELAFTYAENLANCERLIEVE
Result: criterion met

Request: Quick check: does QKNFELAFTMAENLANCERRIEVE have protein stability index greater than or equal to 2?
Result: criterion met

Request: Determine whether measured protein stability index meets or exceeds 2 for QKNFELAFTMAENLANKERLIEVE
Result: criterion met

Request: Check this variant for protein stability index at or above 2: QKNFELAFTMAENLANCHRLIEVE
Result: criterion met

Request: Form field: protein stability index at least 2? Entry: QKNFRLAFTMAENLANCERLIEVE
Result: criterion met

Request: Confirm if protein stability index reported for the variant QKNFELAFTMAENLANCERQIEVE is 2 or above.
Result: criterion not met

Request: Check this variant for protein stability index at or above 2: QKNFELAVTMAENLANCERLIEVE
Result: criterion met

Request: Threshold query (protein stability index >= 2) on QKNFELACTMAENLANCERLIEVE
Result: criterion not met

Request: Does protein stability index meet or surpass 2 for QKNFELAFTMAENLANCERLIELE ?
Result: criterion met

// provenance: the supplement of paper PMC10567573
